Source listed as patent EP4659811A1.

Tested system: VP1 capsid protein on BKV pseudovirions of genotype Ia (BK-D; JF894228) (BK virus genotype Ia (BK-D))
Method notes: cell-based or functional assay
Give measured Neutralization PSV IC50 for each item. Keep answers brief.
I only need the number, in µg/mL, no unit after it.

Recorded Neutralization PSV IC50 of antibody G9P2 (antibody, V domains shown) VH: EVQLLESGGGLVQPGGSLRLSCAASGFTFSSYAMSWVRQAPGKGLEWVSSLTGSGGSTYYRDSVKGRFTIFRDNSKKTLYMQMNSLRAEDTAVYYCAKEGAYSYDFWYFDLWGRGTLVTVSS VL: EIVLTQSPGTLSLSPGERATLSCRASQTVSGNYLAWYQQKPGQSPSLLTYGASSRATGIPDRFTGSGSGTDFTLTISRLEPADFAVYYCQQYGRPLTFGGGTKVEIK , please.
0.683

Can you share its Neutralization PSV IC50? I mean this binder: antibody E10P5 (antibody, V domains shown) VH: QVQLQESGPGLVKPSQTLSLTCSVSGGSISSGNYYWSWIRQPAGKGLEWIGRIYTSGNTNYNPSLKSRVTMSVDTSKNQFSLKLSSVTATDTAVYYCARVRRDGYNAFDYWGQGTLVTVSS VL: SYELTQPPSVSVSPGQTASIDCSGHNLGDKFTCWYQQKPGQSPVLVIYQDSKRPSGIPERFSGSNSGNTATLTISGTQAMDEADYYCQAWDSDTLYVFGTGTTVTVL
0.0004

Need Neutralization PSV IC50 of antibody E7P5 (antibody, V domains shown) VH: QVQLQESGPGLVKPSETLSLTCTVSGGSIRNSYWSWIRQSPGKGLEWIGYIYYTGSTNSNPSLKSRLTVSVHMSQNQISLKLNSVTPADTAVYYCAQGGGSGDLHYWGQGTLVTVSS VL: QSALTQPASVSGSPGQSITISCTGTRSDVGGYNYVSWYQQHPGKAPKLIIYDISSRPSGVSNRFSASKSGNTASLTISGLQAEDEADYYCISFATGYTWVFGGGTSLTVL , thanks.
0.0719
